molecular target: Human pyruvate kinase R (PKR) (Homo sapiens); construct: Human pyruvate kinase R (PKR), residues 14-574; 6x-His (N, cleaved yes); 8x-Arg (N, cleaved yes); SUMO (N, cleaved yes); host or cells: E. coli; test: Biochemical assay for activation of pyruvate kinase R (Kinase-Glo luminescence measurement of ATP generation); details: maximal activation level relative to the activation level achieved by the literature compound AG-348 @ 10 μM
Sequence (P30613 14-574): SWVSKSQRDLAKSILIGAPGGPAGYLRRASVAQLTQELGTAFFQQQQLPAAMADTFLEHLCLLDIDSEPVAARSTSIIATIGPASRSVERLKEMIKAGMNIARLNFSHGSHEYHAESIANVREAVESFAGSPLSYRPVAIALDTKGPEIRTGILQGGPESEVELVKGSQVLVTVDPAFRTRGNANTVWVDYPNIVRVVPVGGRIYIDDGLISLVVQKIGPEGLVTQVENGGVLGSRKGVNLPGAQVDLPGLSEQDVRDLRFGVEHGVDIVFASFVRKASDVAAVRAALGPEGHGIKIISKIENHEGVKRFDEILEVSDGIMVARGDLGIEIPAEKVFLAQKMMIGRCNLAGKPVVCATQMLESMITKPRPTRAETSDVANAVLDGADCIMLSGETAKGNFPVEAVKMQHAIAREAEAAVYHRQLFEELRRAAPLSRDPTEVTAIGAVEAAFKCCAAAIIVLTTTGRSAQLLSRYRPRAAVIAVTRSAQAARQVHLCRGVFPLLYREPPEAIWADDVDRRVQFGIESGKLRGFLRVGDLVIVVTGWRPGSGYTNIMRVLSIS
value kind: Emax (%)
Hi! Could you send only the number? It should be in %, unit omitted.

Reference set (6 entries):
> print(dat)
                                   compound  experimental.value
1  O=C(NCc1nc(CF)nn1-c1ccc(Cl)c(F)c1)NCc1n[nH]c(=O)n1-c1ccc(Cl)c(F)c1 [Compound 107]                 107
2  Cc1nc(CNC(=O)NCc2ncnn2CC2(C)CCOCC2)n(-c2ccc(Cl)c(F)c2)n1 [Compound 12]                  89
3  Cc1nc(CNC(=O)NCc2ncnn2CC2CCCCC2)n(-c2ccc(Cl)c(F)c2)n1 [Compound 16]                  93
4  CCc1nc(CNC(=O)NCc2ncnn2-c2ccc(Cl)c(F)c2)n(-c2ccc3cccnc3c2)n1 [Compound 92]                  72
5  COc1ccc(-n2ncnc2CNC(=O)NCc2ncnn2-c2ccc(OC)cc2)cc1 [Compound 65]                  62
6  CN(Cc1ncnn1-c1ccc(Cl)c(F)c1)C(=O)NCc1nnnn1-c1ccc(Cl)c(F)c1 [Compound 33]                  67

-- ask Supply measured Emax of Cc1nc(CNC(=O)NCc2ncnn2-c2ccc3ccncc3c2)n(-c2ccc(Cl)c(F)c2)n1 [Compound 39] in your reply.
-- reply 63

-- ask Tell me Emax reported for Cc1ccc2ccc(-n3ncnc3CNC(=O)NCc3nc(C)nn3-c3ccc(Cl)c(F)c3)cc2n1 [Compound 29]
-- reply 78

-- ask Input Cc1nc(CNC(=O)NCc2nc(CO)nn2-c2ccc(Cl)c(F)c2)n(-c2ccc3cccnc3c2)n1 [Compound 93] , output reported Emax.
-- reply 100

-- ask Give Emax for Cc1nc(CNC(=O)NCc2ncnn2-c2cc(C)c3cccnc3c2)n(-c2ccc(Cl)c(F)c2)n1 [Compound 113]
-- reply 116

-- ask Tell me measured Emax for Cc1nc(CNC(=O)NCc2n[nH]c(=O)n2-c2ccc(Cl)c(F)c2)n(-c2ccc(Cl)c(F)c2)n1 [Compound 89] please.
-- reply 91

-- ask # return recorded Emax for input O=C(NCc1ncnn1-c1ccc(Cl)c(F)c1)NCc1nc(C2CC2)nn1-c1ccc2cccnc2c1 [Compound 91]
-- reply 61

-- ask Annotate the compound O=C(NCc1ncnn1CC1CCOCC1)NCc1ncnn1-c1ccc(Cl)c(F)c1 [Compound 7] with its measured Emax.
-- reply 46

-- ask Tell me Emax reported for Cc1nc(CNC(=O)NCc2ncnn2Cc2ccc(F)cc2)n(-c2ccc(Cl)c(F)c2)n1 [Compound 20]
-- reply 97

-- ask Give a short answer stating reported Emax for Cc1ccc(-n2ncnc2CNC(=O)NCc2ncnn2-c2ccc(C)c(F)c2)cc1F [Compound 67] .
-- reply 58

-- ask Give Emax for O=C(NCC1=NC2(CC2)C(=O)N1Cc1ccc(F)cc1)NCc1ncnn1-c1ccc2cccnc2c1 [Compound 110]
-- reply 83
